Tested on: Escherichia coli ATCC 25922
Assay: Oral formulations on mice with systemic bacterial infection
Assay type: in vivo, ICR mice
Conditions: 1 mg/kg gavage, three times a day for 7 days, n = 10
Non-standard residues stand in square brackets, D forms with d. Residues, ends and D or L forms follow the SMILES beside them. d2Nal = N[C@H](Cc1ccc2ccccc2c1)C(=O)O; d(hLeu) = CC(C)CC[C@@H](N)C(=O)O
ENDPOINT: Number of mice that died on each day after infection: day 8
Enter the number, and then the unit.

Some entries whose results are on file:
- COMPOUND: "CC(=O)N[C@H](CCCNC(=N)N)C(=O)N[C@H](CCCCN)C(=O)N[C@H](CCC(C)C)C(=O)N[C@H](CCC(C)C)C(=O)N[C@H](Cc1ccc2ccccc2c1)C(=O)N[C@H](CCCNC(=N)N)C(=O)N[C@H](CCC(C)C)C(=O)N[C@H](CCCCN)C(=O)N[C@H](Cc1ccc2ccccc2c1)C(=O)N[C@H](CCCNC(=N)N)C(=O)N[C@H](CCCCN)C(N)=O [LV-14] (Ac-[dR][dK][d(hLeu)][d(hLeu)][d2Nal][dR][d(hLeu)][dK][d2Nal][dR][dK]-NH2)"
  VALUE MEASURED: "1 Mouse"
- COMPOUND: "CC(=O)N[C@H](CCCNC(=N)N)C(=O)N[C@H](CCCCN)C(=O)N[C@H](C)C(=O)N[C@H](C)C(=O)N[C@H](Cc1ccc2ccccc2c1)C(=O)N[C@H](CCCNC(=N)N)C(=O)N[C@H](C)C(=O)N[C@H](CCCCN)C(=O)N[C@H](Cc1ccc2ccccc2c1)C(=O)N[C@H](CCCNC(=N)N)C(=O)N[C@H](CCCCN)C(N)=O [LV-15] (Ac-[dR][dK][dA][dA][d2Nal][dR][dA][dK][d2Nal][dR][dK]-NH2)"
  VALUE MEASURED: "0 Mouse"

With those in mind, consider the next compound.
The reported Number of mice that died on each day after infection: day 8 of the compound CC(=O)N[C@H](CCCNC(=N)N)C(=O)N[C@H](CCCCN)C(=O)N[C@H](CC(C)C)C(=O)N[C@H](CC(C)C)C(=O)N[C@H](Cc1ccccc1)C(=O)N[C@H](CCCNC(=N)N)C(=O)N[C@H](CC(C)C)C(=O)N[C@H](CCCCN)C(=O)N[C@H](Cc1ccccc1)C(=O)N[C@H](CCCNC(=N)N)C(=O)N[C@H](CCCCN)C(N)=O [LV-2] (Ac-[dR][dK][dL][dL][dF][dR][dL][dK][dF][dR][dK]-NH2) was 0 Mouse

* * *

Test system: Escherichia coli ATCC 25922
Assay: Oral formulations on mice with systemic bacterial infection
Assay type: in vivo, ICR mice
Conditions: 1 mg/kg gavage, three times a day for 7 days, n = 10
Non-standard residues stand in square brackets, D forms with d. Residues, ends and D or L forms follow the SMILES beside them. d2Nal = N[C@H](Cc1ccc2ccccc2c1)C(=O)O; dNva = CCC[C@@H](N)C(=O)O
ENDPOINT: Number of mice that died on each day after infection: day 4 (Mouse)
Report the figure in Mouse without appending any unit label.

Study these solved cases before continuing.
- MOLECULE: "CC(=O)N[C@H](CCCCN)C(=O)N[C@H](CCCCN)C(=O)N[C@H](CC(C)C)C(=O)N[C@H](CC(C)C)C(=O)N[C@H](Cc1ccc2ccccc2c1)C(=O)N[C@H](CCCCN)C(=O)N[C@H](CC(C)C)C(=O)N[C@H](CCCCN)C(=O)N[C@H](Cc1ccc2ccccc2c1)C(=O)N[C@H](CCCCN)C(=O)N[C@H](CCCCN)C(N)=O [LV-17] (Ac-[dK][dK][dL][dL][d2Nal][dK][dL][dK][d2Nal][dK][dK]-NH2)"
  VALUE MEASURED: 1
- MOLECULE: "CCC[C@@H](NC(=O)[C@@H](CCCCN)NC(=O)[C@@H](CCCNC(=N)N)NC(C)=O)C(=O)N[C@H](CCC)C(=O)N[C@H](Cc1ccc2ccccc2c1)C(=O)N[C@H](CCCNC(=N)N)C(=O)N[C@H](CCC)C(=O)N[C@H](CCCCN)C(=O)N[C@H](Cc1ccc2ccccc2c1)C(=O)N[C@H](CCCNC(=N)N)C(=O)N[C@H](CCCCN)C(N)=O [LV-13] (Ac-[dR][dK][dNva][dNva][d2Nal][dR][dNva][dK][d2Nal][dR][dK]-NH2)"
  VALUE MEASURED: 3

Record CC(=O)N[C@H](CCCCN)C(=O)N[C@H](CCCCN)C(=O)N[C@H](CC(C)C)C(=O)N[C@H](CC(C)C)C(=O)N[C@H](Cc1ccc2ccccc2c1)C(=O)N[C@H](CCCNC(=N)N)C(=O)N[C@H](CC(C)C)C(=O)N[C@H](CCCCN)C(=O)N[C@H](Cc1ccc2ccccc2c1)C(=O)N[C@H](CCCNC(=N)N)C(=O)N[C@H](CCCCN)C(N)=O [LV-19] (Ac-[dK][dK][dL][dL][d2Nal][dR][dL][dK][d2Nal][dR][dK]-NH2) . Reported Number of mice that died on each day after infection: day 4: 0
